The reported numbers originate from patent US20180179267A1.

Please provide measured Kd for the entries that follow.
target-or-system: T1, LukD
T1 chain: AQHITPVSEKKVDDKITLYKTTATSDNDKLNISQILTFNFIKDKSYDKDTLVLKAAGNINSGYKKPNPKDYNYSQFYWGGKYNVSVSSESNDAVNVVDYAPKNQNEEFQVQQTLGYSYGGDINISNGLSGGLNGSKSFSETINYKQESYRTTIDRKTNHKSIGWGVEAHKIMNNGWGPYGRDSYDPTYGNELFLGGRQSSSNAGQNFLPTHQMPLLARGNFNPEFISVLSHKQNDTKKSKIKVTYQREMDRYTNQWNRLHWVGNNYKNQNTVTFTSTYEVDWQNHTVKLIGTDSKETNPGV
run-description: MSD solution equilibrium; Fab
State the answer as a number, implicitly in nM.

## Input What value of Kd has been reported for the following binder? AB-28-4 (antibody, V domains shown) VH: QVQLQESGPGLVKPSETLSLTCAVSGYPISSGMGWGWIRQPPGKGLEWIGRIDQRGSTYYNPSLKSRATISVDTSKNQFSLKLSSVTAADTAVYYCARDAGHGVDMDVWGKGTTVTVSS VL: DIQMTQSPSSVSASVGDRVTITCRASQGISRWLAWYQQKPGKAPKLLIYAASSLQSGVPSRFSGSGSGTDFTLTISSLQPEDFATYYCQQGYVFPLTFGGGTKVEIK
## Output 0.086

## Input And what about the binder AB-28-12 (antibody, V domains shown) VH: QVQLQESGPGLVKPSETLSLTCAVSGYSISSGMGWDWIRQPPGKGREWIGSIDQRGSTYYNPSLEGRVTISVDTSKNQFSLKLSSVTAADTAVYYCARDAGHGVDMDVWGKGTTVTVSS VL: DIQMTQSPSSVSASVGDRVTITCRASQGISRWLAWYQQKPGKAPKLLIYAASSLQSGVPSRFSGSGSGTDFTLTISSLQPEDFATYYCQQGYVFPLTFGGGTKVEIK ?
## Output 0.46

## Input Now the same for AB-28-5 (antibody, V domains shown) VH: QVQLQESGPGLVKPSETLSLTCAVSGYSISSGMGWGWIRQPPGKGLEWIGRVDQRGSTYYNPSLKSRVTISVDTSKNQFSLKLSSVTAADTAVYYCARDAGHGVDMDVWGKGTTVTVSS VL: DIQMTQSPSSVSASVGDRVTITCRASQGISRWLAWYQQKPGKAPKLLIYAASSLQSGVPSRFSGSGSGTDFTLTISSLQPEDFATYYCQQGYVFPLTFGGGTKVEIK
## Output 0.16
